The measurements presented in this section are drawn from ChEMBL document CHEMBL1201862.

Test system: SF-539
TEST PROTOCOL: NCI tumour cell line growth inhibition, 48 h
Calls of active or inactive are those of the source. Rule as the data show it: active = GI50 up to about 1.1 µM and inactive = higher.
So I've got a bunch of compounds here, and I need their GI50 values.

Completed entries (count: 2):
{"COMPOUND": "CC1C(=O)CC(c2cccs2)N(N=O)C1c1cccs1 (stereo not drawn)", "MEASURED VALUE": "57.5 µM (inactive)"}
{"COMPOUND": "COn1cc(CO)c2ccccc21", "MEASURED VALUE": "> 100 µM (inactive)"}

Next item in the queue.
Q. I'd like to know its GI50. The compound in question is NCCSc1nc2ccccc2s1
A. 17.3 µM (inactive)

====

Test system: HOP-92
TEST PROTOCOL: NCI tumour cell line growth inhibition, 48 h
Active and inactive are the calls of the source. Rule as the data show it: active = GI50 up to about 1.1 µM and inactive = higher. Starred links: 1 amine or outer side, 2 acyl side, 3 side chain; linkers in the order of their positions; H or OH if unused. Non-standard residues stand in square brackets, D forms with d. Residues, ends and D or L forms follow the SMILES beside them. ξ: configuration not given here. X24 = O=C(C(CC(O)CO)O[*:1])[*:2]; Ile(3ξ) = CCC(C)[C@H](N)C(=O)O; NMeV = CN[C@H](C(=O)O)C(C)C; NMeA = CN[C@@H](C)C(=O)O; βAla = NCCC(=O)O
Assign GI50 to each entry below.

Past entries and their recorded results:
{"COMPOUND": "O=C1N[C@@H]2c3c(csc3Br)C(=O)[C@@H]2O1", "MEASURED ON": "HOP-92", "GI50": "20.8 µM (inactive)"}
{"COMPOUND": "Nc1ccc(/C=C/c2ccc3cccnc3c2)cc1", "MEASURED ON": "HOP-92", "GI50": "> 100 µM (inactive)"}
{"COMPOUND": "COC(=O)Nc1nc2cc(S(=O)(=O)n3nnc4ccccc43)ccc2[nH]1", "MEASURED ON": "HOP-92", "GI50": "14.5 µM (inactive)"}
{"COMPOUND": "COc1ccc(NC(C)=O)c(C(=O)CCNC(C)=O)c1", "MEASURED ON": "HOP-92", "GI50": "> 100 µM (inactive)"}
{"COMPOUND": "COc1ccc(C(C#N)NCCCCCCNC(C#N)c2ccc(OC)cc2)cc1 (stereo not drawn)", "MEASURED ON": "HOP-92", "GI50": "> 100 µM (inactive)"}

Value sought for every listed compound: GI50.
1. CC1=CC[C@@]2(C)CC[C@](O)(C(C)C)C2C(OC(=O)c2ccccc2)C1 (stereo partly drawn)
2. CCCC/C=C1\CCC(CN2CCOCC2)C1=O (stereo not drawn)
3. CCCCCCCC(=O)OCC(COC(=O)C(C)(C)C)OC(=O)Cc1ccccc1 (stereo not drawn)

A.
["15.1 µM (inactive)", "1.83 µM (inactive)", "> 100 µM (inactive)"]

// each listed compound needs a value for GI50
1. CCC(C)[C@@H]1NC(=O)[C@@H]2CCCN2C(=O)C(CC(O)CO)OC(=O)CCNC(=O)[C@H](C)N(C)C(=O)[C@H](C(C)C)N(C)C1=O (stereo partly drawn) (cyclo([Ile(3ξ)][NMeV][NMeA][βAla][X24]P))
2. CC(=O)OCC(=O)O[C@@H]1[C@H]2[C@@H](OC(=O)c3ccccc3)[C@@H](C)C[C@]2(O)[C@H](OC(C)=O)[C@@]2(C)C(OC(C)=O)[C@]1(OC(C)=O)C[C@H]1C(=O)C(C)(C)C[C@@H]12 (stereo partly drawn)
3. CC(=O)C(=Cc1cn(C)c(=O)n(C)c1=O)C(C)=O
4. C=C1CC(COc2ccc3c(C)c(Cl)c(=O)oc3c2)(c2ccccc2)OC1=O (stereo not drawn)
5. COc1ccc2oc(C(=O)O)c3c2c1CCC3CCC(=O)O (stereo not drawn)
6. CCCCOC(=O)Nc1ccc(S(=O)(=O)Nc2ccccc2Cl)cc1

A.
["> 100 µM (inactive)", "> 31.7 µM (inactive)", "2.62 µM (inactive)", "1.47 µM (inactive)", "> 100 µM (inactive)", "13.7 µM (inactive)"]

Parameter requested: GI50. Apply to each item below.
1. Cc1cn(C2CC(/[N+]([O-])=N\Nc3ccc([N+](=O)[O-])cc3)C(CO)O2)c(=O)[nH]c1=O (stereo not drawn)
2. CS/C(=N\C(=S)N(C)C)N(c1ccccc1)c1nc(N(C)C)s[s+]1
3. COc1cc2cc3c4c(cc(OC)c(OC)c4c2cc1OC)CCN3C(=O)CCC(=O)O

A.
1: > 100 µM (inactive); 2: 20.9 µM (inactive); 3: > 100 µM (inactive)

Provide GI50 values for the following items, in order.
1. CCN(CC)C1Oc2cc3c(cc2C(c2cc(OC)c(O)c(OC)c2)C1C)OCO3 (stereo not drawn)
2. O=C1CNNC(Cn2nc(-c3ccccc3)c3ccccc3c2=O)=N1
3. O=C(N[C@@H](c1ccccc1)[C@@H](O)C(=O)OCc1ccc2c(c1)OCO2)c1ccccc1
4. CN(C)/N=C(\CCN1CCCC1)CC(c1ccccc1)c1c(O)c2ccccc2oc1=O (stereo not drawn)

A.
15.5 µM (inactive)
> 100 µM (inactive)
> 86.7 µM (inactive)
> 100 µM (inactive)

Kindly give each listed record's GI50.
1. COC(=O)C(COC(C)=O)NC(=O)/C=C/c1ccc(O)c(OC(C)=O)c1 (stereo not drawn)
2. NC(CO)c1ccc(OCc2ccccc2)cc1 (stereo not drawn)

A.
83.4 µM (inactive)
27.7 µM (inactive)
